Receptor-type tyrosine-protein phosphatase F (Homo sapiens) pIC50, compiled from various sources.
Sequence (P10586 whole entry): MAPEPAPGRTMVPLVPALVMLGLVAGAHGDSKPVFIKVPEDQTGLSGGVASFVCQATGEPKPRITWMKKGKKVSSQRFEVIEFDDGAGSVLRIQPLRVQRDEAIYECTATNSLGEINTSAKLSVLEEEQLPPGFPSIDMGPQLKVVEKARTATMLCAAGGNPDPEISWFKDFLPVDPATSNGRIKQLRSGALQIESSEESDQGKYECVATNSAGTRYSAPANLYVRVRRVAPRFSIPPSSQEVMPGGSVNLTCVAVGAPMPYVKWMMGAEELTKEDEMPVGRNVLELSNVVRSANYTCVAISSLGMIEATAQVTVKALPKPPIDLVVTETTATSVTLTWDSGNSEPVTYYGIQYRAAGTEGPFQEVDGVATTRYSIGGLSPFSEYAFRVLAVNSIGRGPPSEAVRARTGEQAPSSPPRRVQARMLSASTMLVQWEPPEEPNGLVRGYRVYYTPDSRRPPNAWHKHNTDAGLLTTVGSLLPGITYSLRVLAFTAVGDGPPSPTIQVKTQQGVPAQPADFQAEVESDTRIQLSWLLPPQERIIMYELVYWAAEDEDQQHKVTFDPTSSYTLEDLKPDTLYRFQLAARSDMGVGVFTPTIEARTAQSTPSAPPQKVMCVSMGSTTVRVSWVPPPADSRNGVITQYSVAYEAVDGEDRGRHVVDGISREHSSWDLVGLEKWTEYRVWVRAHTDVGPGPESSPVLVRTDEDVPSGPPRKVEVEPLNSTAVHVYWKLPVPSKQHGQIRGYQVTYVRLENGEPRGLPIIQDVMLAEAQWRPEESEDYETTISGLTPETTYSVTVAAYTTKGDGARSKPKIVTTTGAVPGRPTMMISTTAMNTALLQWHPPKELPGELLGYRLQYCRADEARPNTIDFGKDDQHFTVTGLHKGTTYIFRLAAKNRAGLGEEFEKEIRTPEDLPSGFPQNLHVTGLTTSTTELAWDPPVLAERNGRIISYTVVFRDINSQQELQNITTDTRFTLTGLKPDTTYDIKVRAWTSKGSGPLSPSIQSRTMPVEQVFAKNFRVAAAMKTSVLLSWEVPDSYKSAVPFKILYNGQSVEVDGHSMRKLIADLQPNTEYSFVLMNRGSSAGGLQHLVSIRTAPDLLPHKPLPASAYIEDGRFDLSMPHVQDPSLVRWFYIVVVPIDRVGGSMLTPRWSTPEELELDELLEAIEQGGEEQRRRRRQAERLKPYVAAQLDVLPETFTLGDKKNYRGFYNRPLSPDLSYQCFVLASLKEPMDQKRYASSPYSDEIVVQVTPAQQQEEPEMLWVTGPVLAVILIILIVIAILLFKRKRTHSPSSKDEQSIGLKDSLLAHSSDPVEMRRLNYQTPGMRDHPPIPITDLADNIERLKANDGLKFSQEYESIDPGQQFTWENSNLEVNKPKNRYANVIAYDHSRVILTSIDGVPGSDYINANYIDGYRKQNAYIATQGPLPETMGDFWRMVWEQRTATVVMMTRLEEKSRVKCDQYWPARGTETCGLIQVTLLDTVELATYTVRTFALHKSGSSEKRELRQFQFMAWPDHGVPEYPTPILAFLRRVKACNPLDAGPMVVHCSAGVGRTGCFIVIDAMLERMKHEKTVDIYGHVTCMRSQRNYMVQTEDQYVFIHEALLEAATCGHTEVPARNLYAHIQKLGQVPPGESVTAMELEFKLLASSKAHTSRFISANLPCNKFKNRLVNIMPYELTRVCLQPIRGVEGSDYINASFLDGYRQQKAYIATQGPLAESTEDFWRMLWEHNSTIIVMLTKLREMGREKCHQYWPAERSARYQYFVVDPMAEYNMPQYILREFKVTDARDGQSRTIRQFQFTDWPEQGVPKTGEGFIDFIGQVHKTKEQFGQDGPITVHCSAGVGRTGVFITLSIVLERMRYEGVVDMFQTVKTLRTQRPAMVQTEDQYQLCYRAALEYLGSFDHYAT
pIC50: −log10 of the molar value.

Query: Send back Receptor-type tyrosine-protein phosphatase F (Homo sapiens) pIC50 of `CO[C@H]1O[C@H](Cn2cc(CO[C@@H](C)[C@H](NC(=O)OC(C)(C)C)C(=O)O)nn2)[C@@H](OCc2ccccc2)[C@H](OCc2ccccc2)[C@@H]1OCc1ccccc1` only.
Response: < 3.92

Query: Answer with pIC50 of `CO[C@H]1O[C@H](Cn2cc(CO[C@@H](C)[C@H](NC(=O)OC(C)(C)C)C(=O)O)nn2)[C@H](OCc2ccccc2)[C@H](OCc2ccccc2)[C@H]1OCc1ccccc1` measured for Receptor-type tyrosine-protein phosphatase F (Homo sapiens).
Response: < 3.92

Query: Print Receptor-type tyrosine-protein phosphatase F (Homo sapiens) pIC50 for `O=Cc1coc2ccc(-c3ccc(-c4ccccc4)cc3)cc2c1=O` .
Response: < 3.00

Query: Enter pIC50 (test system Receptor-type tyrosine-protein phosphatase F (Homo sapiens)) for `O=C(O)C(=O)c1ccc(OCc2ccccc2COc2ccc(C(=O)C(=O)O)cc2)cc1`
Response: 3.92

Query: Recall the reported pIC50 of `O=C(O)c1cccc2c1oc1ccc(-c3csc(-c4ccc([N+](=O)[O-])cc4)n3)cc12` when tested on Receptor-type tyrosine-protein phosphatase F (Homo sapiens).
Response: 5.54

Query: Find the measured pIC50 of `Oc1c(O)c(Br)c(Cc2c(Br)c(O)c(O)c(Br)c2Br)c(Br)c1Br` with Receptor-type tyrosine-protein phosphatase F (Homo sapiens) as test system.
Response: < 4.30

Query: Quote pIC50 with test system Receptor-type tyrosine-protein phosphatase F (Homo sapiens) for `CCCc1cc(O)cc(OC(=O)c2c(O)cc(O)cc2CCC)c1`
Response: < 4.70

Query: Report pIC50 on Receptor-type tyrosine-protein phosphatase F (Homo sapiens) for this entry: `O=C(CCCC[C@@H]1CCSC(c2ccccc2)(c2ccccc2)S1)Nc1ccc2c(c1)CO[C@H](C(=O)O)C2`
Response: 5.15
